# fold enhanced binding over parent LM609 grafted antibody values compiled below
Biological target: T1, integrin αvβ3, purified from human placenta (human, UniProt P06756 31-1048; P05106 27-788)
T1 construct: mature; Native heterodimer, immobilized on ELISA plates or on the BIAcore chip; biotinylated in capture lift and capture ELISA screens; also called αvβ3 receptor; vitronectin receptor
T1 sequence (P06756 31-1048, form in doubt, chain 1 of 2): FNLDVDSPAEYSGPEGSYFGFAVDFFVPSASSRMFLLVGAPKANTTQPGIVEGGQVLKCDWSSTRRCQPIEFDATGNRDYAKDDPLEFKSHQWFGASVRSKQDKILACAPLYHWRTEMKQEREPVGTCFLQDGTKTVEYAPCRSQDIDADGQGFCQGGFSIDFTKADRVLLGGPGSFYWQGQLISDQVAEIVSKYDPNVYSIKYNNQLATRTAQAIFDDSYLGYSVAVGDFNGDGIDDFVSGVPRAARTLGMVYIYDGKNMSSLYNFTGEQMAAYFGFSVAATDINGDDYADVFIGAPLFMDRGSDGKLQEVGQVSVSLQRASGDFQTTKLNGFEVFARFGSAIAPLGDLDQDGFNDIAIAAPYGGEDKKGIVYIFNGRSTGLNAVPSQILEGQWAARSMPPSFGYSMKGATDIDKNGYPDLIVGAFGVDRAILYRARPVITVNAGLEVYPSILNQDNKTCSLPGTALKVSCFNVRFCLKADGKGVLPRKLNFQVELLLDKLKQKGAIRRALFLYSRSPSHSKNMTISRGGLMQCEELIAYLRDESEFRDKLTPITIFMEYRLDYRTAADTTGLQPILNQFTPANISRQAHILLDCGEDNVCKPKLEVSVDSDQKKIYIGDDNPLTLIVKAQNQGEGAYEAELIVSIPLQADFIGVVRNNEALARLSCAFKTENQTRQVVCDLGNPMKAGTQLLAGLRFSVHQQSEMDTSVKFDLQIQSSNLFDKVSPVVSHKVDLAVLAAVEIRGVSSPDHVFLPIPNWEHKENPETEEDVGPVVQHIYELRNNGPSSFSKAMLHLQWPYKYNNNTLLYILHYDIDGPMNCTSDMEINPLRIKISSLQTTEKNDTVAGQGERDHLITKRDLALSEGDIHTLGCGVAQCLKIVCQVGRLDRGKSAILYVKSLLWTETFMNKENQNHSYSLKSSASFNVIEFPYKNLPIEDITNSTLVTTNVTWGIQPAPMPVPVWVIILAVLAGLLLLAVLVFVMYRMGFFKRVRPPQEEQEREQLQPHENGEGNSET
T1 sequence (P05106 27-788, form in doubt, chain 2 of 2): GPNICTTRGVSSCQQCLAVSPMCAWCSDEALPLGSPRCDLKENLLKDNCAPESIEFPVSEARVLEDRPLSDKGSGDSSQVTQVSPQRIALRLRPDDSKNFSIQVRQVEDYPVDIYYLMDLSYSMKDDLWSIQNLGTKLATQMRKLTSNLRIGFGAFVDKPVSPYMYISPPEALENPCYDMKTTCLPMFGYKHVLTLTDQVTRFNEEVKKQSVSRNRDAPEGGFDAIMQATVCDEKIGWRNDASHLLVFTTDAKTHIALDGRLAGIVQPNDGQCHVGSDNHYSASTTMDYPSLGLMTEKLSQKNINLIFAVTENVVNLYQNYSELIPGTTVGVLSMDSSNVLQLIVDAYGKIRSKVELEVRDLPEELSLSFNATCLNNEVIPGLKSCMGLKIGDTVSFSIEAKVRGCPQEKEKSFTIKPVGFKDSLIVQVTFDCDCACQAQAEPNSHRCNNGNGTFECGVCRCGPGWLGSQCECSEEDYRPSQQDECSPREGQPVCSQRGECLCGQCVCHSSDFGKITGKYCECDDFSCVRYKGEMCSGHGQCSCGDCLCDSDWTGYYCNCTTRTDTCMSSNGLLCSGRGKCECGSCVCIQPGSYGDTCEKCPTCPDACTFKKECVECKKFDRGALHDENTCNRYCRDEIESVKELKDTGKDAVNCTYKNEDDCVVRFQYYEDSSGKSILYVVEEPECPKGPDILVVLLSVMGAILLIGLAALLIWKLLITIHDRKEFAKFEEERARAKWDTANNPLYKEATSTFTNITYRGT
Assay: ELISA titration of Fab on immobilized αvβ3
experimentalEndpoint: fold enhanced binding over parent LM609 grafted antibody

LM609 grafted antibody variant M102 (Fab, V domains shown, Fab) VH: QVQLVESGGGVVQPGRSLRLSCAASGFTFSSYDMSWVRQAPGKGLEWVAKVSSGGGSTYYLDTVQGRFTISRDNSKNTLYLQMNSLRAEDTAVYYCARHNYGSFAMWGQGTTVTVSS VL: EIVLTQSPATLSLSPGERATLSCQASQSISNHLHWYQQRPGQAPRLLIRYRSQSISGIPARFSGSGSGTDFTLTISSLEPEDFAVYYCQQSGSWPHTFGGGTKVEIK
> 3 fold
LM609 grafted antibody variant Y100 (Fab, V domains shown, Fab) VH: QVQLVESGGGVVQPGRSLRLSCAASGFTFSSYDMSWVRQAPGKGLEWVAKVSSGGGSTYYLDTVQGRFTISRDNSKNTLYLQMNSLRAEDTAVYYCARHNYGSYAYWGQGTTVTVSS VL: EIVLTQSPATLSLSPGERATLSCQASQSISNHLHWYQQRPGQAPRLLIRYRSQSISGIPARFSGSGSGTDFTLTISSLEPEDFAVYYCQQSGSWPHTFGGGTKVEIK
> 3 fold
LM609 grafted antibody variant E102 (Fab, V domains shown, Fab) VH: QVQLVESGGGVVQPGRSLRLSCAASGFTFSSYDMSWVRQAPGKGLEWVAKVSSGGGSTYYLDTVQGRFTISRDNSKNTLYLQMNSLRAEDTAVYYCARHNYGSFAEWGQGTTVTVSS VL: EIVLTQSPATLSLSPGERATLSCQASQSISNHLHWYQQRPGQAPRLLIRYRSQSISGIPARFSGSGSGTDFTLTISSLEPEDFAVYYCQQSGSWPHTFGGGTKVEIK
> 3 fold
